Measured values drawn from the RNAGym collection of RNA variant scans (doi:10.1002/anie.201605470) for this set.

B1: Osa-1-4 twister ribozyme (parent)
chain: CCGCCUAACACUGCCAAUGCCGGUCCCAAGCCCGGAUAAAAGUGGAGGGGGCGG

Variants of: B1
Experiment: self-cleavage, relative activity (ratio to wild type); higher = more cleavage; co-transcriptional
Decide by self-cleavage: equal to or exceeding 0.8 means Y, less means N.

residues	assigned.label
CCGCCUAACACUGCCAAUGCCGGUCCCAAGCGCGGAUAAAAGUGGAGGGGCCGG [C32G G51C]	N
CCGCCUAACACUGCCAUUGUCGGUCCCAAGCCCGGAUAAAAGUGGAGGGGGCGG [A17U C20U]	Y
CCGCCUAACUCUGCCAAUGCCGGUCCCAAGCCCGGAUAAAAGUGGAGGAGGCGG [A10U G49A]	N
CCGCCUAACACAGCCAAUGCCGGUCCCAAGCCCGGAUAAAAGUGGAGGGGGGGG [C52G U12A]	Y
CCGCCUAACGCUGCCAAUGCCGGUCCCAAGCCCGGAUAAAAGUUGAGGGGGCGG [A10G G44U]	Y
CCGCCUAACUCUGCCAAUGCCGGUCCCACGCCCGGAUAAAAGUGGAGGGGGCGG [A10U A29C]	N

In plain terms: is recorded self-cleavage at least 0.8 for CCGCCUAAUACUGCCAAAGCCGGUCCCAAGCCCGGAUAAAAGUGGAGGGGGCGG [C9U U18A] ?
N

Dear colleague, could you confirm whether CCGCCUAACACUGCCACUGCCAGUCCCAAGCCCGGAUAAAAGUGGAGGGGGCGG [A17C G22A] has self-cleavage at or above 0.8?
N

Form field: self-cleavage at least 0.8? Entry: CCGCCUAACACUGCCAUUGCCGGUCCCAAGCCCGGAUAAAAGUGGAGGGUGCGG [A17U G50U]
Y

Would you say CCGCCUAACACUGCCAAUGCCGGUCCCAAGCCCGGAGAAAAGUGGAGGGGGCGU [G54U U37G] shows self-cleavage at minimum 0.8?
Y

Identify whether the reported self-cleavage of the following variant is 0.8 or greater: CCGCCUAACACUGCCUAUGCCGGUCCCAAGCCCGGAUAAAAGGGGAGGGGGCGG [A16U U43G]
N

Decide: is the reported value of self-cleavage for CCGCCUAACACUGCCAAUGCCGGUUCCAAGCCCGGAUAAAUGUGGAGGGGGCGG [A41U C25U] equal to or greater than 0.8?
Y

Is it the case that CCGCCUAACACUGCCAAUGCCGGUCCCAAACCCGGAUAAAAGUGGAGGGGGCCG [G30A G53C] has self-cleavage reaching or exceeding 0.8?
N

Could you verify whether the entry CCGCCUAACACUGCCAAUGCCGGGCCCAAGCCCGGAUAAAAGUAGAGGGGGCGG [G44A U24G] shows self-cleavage of no less than 0.8?
N

Answer whether self-cleavage of CCGCCUAACACUGCCAAUGCCGGUCCCAAGCCCGGAUAAAAGUGGUGGUGGCGG [A46U G49U] is greater than or equal to 0.8.
N

Does CCGCCUAACACCGCCAAUGCCGGUCCCAAGCCCGGAUAAACGUGGAGGGGGCGG [A41C U12C] have a reported self-cleavage of at least 0.8?
N

Quick check: does CCGCCUAACACUGCCAAUGUCGGUCCCAAGCCCGGAUAAAAGUGGAGGGUGCGG [C20U G50U] have self-cleavage greater than or equal to 0.8?
Y

I'd appreciate it if you could say whether CCGCCUAACACUGCCAGUGCCGGUCCCAAGCCCGGAUAAAAGUGGAGCGGGCGG [A17G G48C] has self-cleavage at least equal to 0.8.
N

Would you say CCGCCUAACACUGCCAAUGCCGGUCCCAAGCCCGGAUAACAGUGGAUGGGGCGG [A40C G47U] shows self-cleavage at minimum 0.8?
N

Hello, I need to know if CCGCCUAACAGUGCCAAUGCCGUUCCCAAGCCCGGAUAAAAGUGGAGGGGGCGG [C11G G23U] has measured self-cleavage not below 0.8. Thanks!
N

Quick check, self-cleavage >= 0.8? CCGCCUAACACUGCCAAUGCCGGUCCCAGGCCCGGAUAAUAGUGGAGGGGGCGG [A29G A40U]
N
